- assay.target: PDGFRB (Homo sapiens, UniProt P09619)
- Sequence (P09619 33-1106): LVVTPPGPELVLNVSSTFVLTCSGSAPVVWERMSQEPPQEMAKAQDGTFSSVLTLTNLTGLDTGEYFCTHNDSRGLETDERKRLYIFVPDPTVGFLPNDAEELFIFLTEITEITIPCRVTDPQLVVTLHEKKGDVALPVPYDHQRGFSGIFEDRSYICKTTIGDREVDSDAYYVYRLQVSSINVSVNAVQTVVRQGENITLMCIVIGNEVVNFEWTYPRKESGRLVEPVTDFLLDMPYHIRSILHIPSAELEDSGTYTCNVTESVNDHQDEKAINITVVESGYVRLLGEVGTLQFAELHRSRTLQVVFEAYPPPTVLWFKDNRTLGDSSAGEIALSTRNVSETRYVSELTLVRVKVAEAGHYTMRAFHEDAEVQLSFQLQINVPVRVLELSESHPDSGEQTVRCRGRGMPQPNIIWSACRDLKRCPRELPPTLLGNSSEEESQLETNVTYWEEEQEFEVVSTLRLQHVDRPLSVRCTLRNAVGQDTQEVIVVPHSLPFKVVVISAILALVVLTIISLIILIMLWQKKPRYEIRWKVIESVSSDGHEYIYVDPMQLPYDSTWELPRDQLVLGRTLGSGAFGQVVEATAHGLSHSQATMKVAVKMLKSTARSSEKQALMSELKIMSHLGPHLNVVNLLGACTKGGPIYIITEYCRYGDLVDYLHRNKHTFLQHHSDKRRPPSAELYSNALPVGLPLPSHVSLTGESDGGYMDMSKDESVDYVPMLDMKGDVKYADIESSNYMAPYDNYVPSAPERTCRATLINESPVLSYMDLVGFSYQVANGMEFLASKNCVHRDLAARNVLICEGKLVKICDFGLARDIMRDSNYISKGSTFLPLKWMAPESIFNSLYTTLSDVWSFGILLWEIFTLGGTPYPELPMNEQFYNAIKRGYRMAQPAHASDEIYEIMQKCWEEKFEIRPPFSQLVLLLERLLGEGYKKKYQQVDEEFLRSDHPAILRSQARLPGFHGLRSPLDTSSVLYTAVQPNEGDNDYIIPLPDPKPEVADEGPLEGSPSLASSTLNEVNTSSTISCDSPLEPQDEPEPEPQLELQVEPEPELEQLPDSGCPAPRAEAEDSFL
- assay.text: Z'-Lyte biochemical kinase assay (SelectScreen), PDGFRB
- condition.summary: at 50 nM, in duplicate
observation.type: inhibition at 0.05 µM (%)
Response body: numeric value in %, unit text excluded.

Study these solved cases before continuing.
[[record]]
smiles = "O=C(NCc1cccc(F)c1)c1cccc(Oc2ccnc3ccccc23)c1"
observation_type = "inhibition at 0.05 µM"
observed_value = 24

[[record]]
smiles = "COc1cc2nccc(Oc3cc(C(=O)N[C@H](C)C4CCCCC4)ccc3F)c2cc1OC"
observation_type = "inhibition at 0.05 µM"
observed_value = 24

[[record]]
smiles = "COc1cc2nccc(Oc3cccc(C(=O)N[C@H](C)c4ccccc4)c3)c2cc1OC"
observation_type = "inhibition at 0.05 µM"
observed_value = 34

[[record]]
smiles = "COc1ccc2c(Oc3cc(F)cc(C(=O)NCc4ccccc4OC)c3)ccnc2c1"
observation_type = "inhibition at 0.05 µM"
observed_value = 53


Now let's try a different one.
Please give the measured inhibition at 0.05 µM for this compound: COc1ccccc1CNC(=O)c1cccc(Oc2ccnc3ccccc23)c1
22
